The origin of these recorded values is patent US20240279215A1.

- tested_target: human NAMPT (Homo sapiens (Human))
- assay_text: NMN fluorescence biochemical assay (human recombinant NAMPT enzyme assay)
Lab note: anything with AC1.4 Human below 0.6 µM is marked Condition met; values at 0.6 µM or higher are marked Condition not met.

Examples with answers:
>  <compound>
O=C(Nc1ccc(CNC(=O)c2ocnc2C2CC2)cc1)OCc1ccc(Cl)cc1 [Compound 343]

>  <label>
Condition not met

$$$$
>  <compound>
O=C(Nc1ccc(CNC(=O)c2ccncc2)cc1)OCc1ccc(Cl)cc1 [Compound 126]

>  <label>
Condition not met

$$$$
>  <compound>
O=C(Nc1ccc(Cc2cccnc2)cc1)OCc1ccc(Cl)cc1 [Compound 172]

>  <label>
Condition not met

$$$$

Ask: Please indicate whether the reported AC1.4 Human of COc1ccc(COC(=O)Nc2ccc(CN3CCN(c4ccccn4)CC3)cc2)cc1 [Compound 83] is strictly below 0.6 µM.
Result: Condition not met

Ask: Strictly below 0.6 µM in AC1.4 Human? CN(C)S(=O)(=O)N1CC2(CC(Cc3ccc(NC(=O)OCc4cnco4)cc3F)C2)C1 [Compound 399]
Result: Condition met

* * *

- tested_target: human NAMPT (Homo sapiens (Human))
- assay_text: NMN fluorescence biochemical assay (human recombinant NAMPT enzyme assay)
I'd appreciate it if you could supply AC1.4 Human values for the items below.
Numbers only, in µM.

>  <compound>
CC(C)C(=O)N1CC2CCC(C1)C2Cc1ccc(NC(=O)OCc2cnco2)cc1 (centres unmarked) [Compound 423]

>  <AC1.4 Human / µM>
0.18

$$$$
>  <compound>
CS(=O)(=O)N1CCC2(CC(c3ccc(NC(=O)OCc4cnco4)cc3F)C2)C1 (single isomer, unassigned) [Compound 360]

>  <AC1.4 Human / µM>
0.07

$$$$
>  <compound>
CN1CCC(C(=O)NCc2ccc(NC(=O)OCc3ccc(Cl)cc3)cc2)CC1=O (centres unmarked) [Compound 124]

>  <AC1.4 Human / µM>
0.98

$$$$
>  <compound>
O=C(Nc1ccc(CC(=O)N2CCN(CC(F)F)CC2)cc1)OCc1ccc(Cl)cc1 [Compound 282]

>  <AC1.4 Human / µM>
3.57

$$$$
>  <compound>
O=C(Nc1ccc(Cc2cocn2)cc1)OCc1ccc(Cl)cc1 [Compound 353]

>  <AC1.4 Human / µM>
23.63

$$$$

Batch lookup, AC1.4 Human per entry.
1. CN(C)S(=O)(=O)N1C2CCC1CC(Cc1ccc(NC(=O)OCc3cnco3)cc1)C2 (centres unmarked) [Compound 405]
2. Cc1ncc(C(=O)NCc2ccc(NC(=O)OCc3ccc(Cl)cc3)cc2)cn1 [Compound 109]
3. O=C(Nc1ccc(C2CCN(S(=O)(=O)N3CCC3)CC2)cc1)OCc1cnco1 [Compound 428]

Result:
0.11
0.90
0.07

* * *

Would you mind telling me the reported EC50 of each entry?
- tested_target: human NAMPT (Homo sapiens (Human), UniProt P43490)
- Sequence (P43490 whole entry): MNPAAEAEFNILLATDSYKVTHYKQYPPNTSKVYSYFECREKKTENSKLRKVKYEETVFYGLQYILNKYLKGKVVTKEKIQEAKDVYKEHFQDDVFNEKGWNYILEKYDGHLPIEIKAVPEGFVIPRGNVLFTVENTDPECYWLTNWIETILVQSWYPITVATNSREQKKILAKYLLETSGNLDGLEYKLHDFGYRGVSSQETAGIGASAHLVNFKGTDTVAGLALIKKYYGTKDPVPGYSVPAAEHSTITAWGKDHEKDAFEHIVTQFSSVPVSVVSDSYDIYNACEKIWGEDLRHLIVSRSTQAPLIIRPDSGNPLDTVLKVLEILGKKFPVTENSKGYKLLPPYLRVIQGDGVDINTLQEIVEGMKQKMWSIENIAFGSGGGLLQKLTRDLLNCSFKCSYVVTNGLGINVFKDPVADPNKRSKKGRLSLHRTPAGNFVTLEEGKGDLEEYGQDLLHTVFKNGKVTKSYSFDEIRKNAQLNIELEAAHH
- assay_text: NMN fluorescence biochemical assay (human recombinant NAMPT enzyme assay)
One number for each entry, in µM.

Reference set, count: 5
>  <compound>
Cn1ccc(C(=O)NCc2ccc(NC(=O)OCc3ccc(Cl)cc3)cc2)c1

>  <tested_target>
human NAMPT (Homo sapiens (Human), UniProt P43490)

>  <unit_symbol>
µM

>  <EC50>
15.1

$$$$
>  <compound>
COC(=O)N1CCC(Cc2ccc(NC(=O)OCc3cnco3)cc2)CC12CC2 (centres unmarked)

>  <tested_target>
human NAMPT (Homo sapiens (Human), UniProt P43490)

>  <unit_symbol>
µM

>  <EC50>
6.45

$$$$
>  <compound>
CS(=O)(=O)N1CCC(c2ccc(NC(=O)OCc3cnco3)cc2F)CC1

>  <tested_target>
human NAMPT (Homo sapiens (Human), UniProt P43490)

>  <unit_symbol>
µM

>  <EC50>
11.9

$$$$
>  <compound>
CC(=O)N1CCC(c2ccc(NC(=O)OCc3ccc(Cl)cc3)cc2)CC1

>  <tested_target>
human NAMPT (Homo sapiens (Human), UniProt P43490)

>  <unit_symbol>
µM

>  <EC50>
2.16

$$$$
>  <compound>
CCc1ncoc1C(=O)N(C)Cc1ccc(NC(=O)OCc2ccc(Cl)cc2)cc1

>  <tested_target>
human NAMPT (Homo sapiens (Human), UniProt P43490)

>  <unit_symbol>
µM

>  <EC50>
4.56

$$$$

For every item below, please supply its EC50.
1. Cc1ccc(C(=O)N[C@@H](C)c2ccc(NC(=O)OCc3ccc(Cl)cc3)cc2)cn1
2. COc1cnn(C)c1C(=O)N(C)Cc1ccc(NC(=O)OCc2ccc(Cl)cc2)cc1

Result:
[1.91, 17.9]

Ask: # get_value(readout= EC50, system= human NAMPT (Homo sapiens (Human), UniProt P43490)) for Cc1ccc(CNC(=O)Cc2ccc(NC(=O)OCc3ccc(Cl)cc3)cc2)cn1
Result: 13.3

* * *

- tested_target: human NAMPT (Homo sapiens (Human))
- assay_text: NMN fluorescence biochemical assay (human recombinant NAMPT enzyme assay)
property_label: AC1.4 Human (µM)
One number for each entry, in µM.

Study these solved cases before continuing.
>  <compound>
O=C(Cc1ccc(NC(=O)OCc2ccc(Cl)cc2)cc1)NCc1cnccn1 [Compound 300]

>  <tested_target>
human NAMPT (Homo sapiens (Human))

>  <AC1.4 Human (µM)>
4.81

$$$$
>  <compound>
COc1ccc(COC(=O)Nc2ccc(NS(=O)(=O)Cc3ccccc3)cc2)cc1 [Compound 61]

>  <tested_target>
human NAMPT (Homo sapiens (Human))

>  <AC1.4 Human (µM)>
0.57

$$$$
>  <compound>
CN(C)C(=O)N1CCC[C@@H](c2ccc(NC(=O)OCc3cnco3)cc2)C1 [Compound 385]

>  <tested_target>
human NAMPT (Homo sapiens (Human))

>  <AC1.4 Human (µM)>
1.69

$$$$
>  <compound>
COC1CCN(C(=O)NCc2ccc(NC(=O)OCc3ccc(Cl)cc3)cc2)CC1 [Compound 184]

>  <tested_target>
human NAMPT (Homo sapiens (Human))

>  <AC1.4 Human (µM)>
1.58

$$$$
>  <compound>
C[C@H](NC(=O)C1CCC(F)(F)C1)c1ccc(NC(=O)OCc2cnco2)cc1 (some centres unmarked) [Compound 97]

>  <tested_target>
human NAMPT (Homo sapiens (Human))

>  <AC1.4 Human (µM)>
0.76

$$$$

For every item in the list below, what is its measured AC1.4 Human?
1. CS(=O)(=O)N1CCC(Cc2ccc(NC(=O)OCc3cnco3)cc2F)CC1 [Compound 448]
2. O=C(Cc1cnoc1)NCc1ccc(NC(=O)OCc2ccc(Cl)cc2)cc1 [Compound 330]
3. O=C(Cc1ccc(NC(=O)OCc2ccc(Cl)cc2)cc1)N[C@H]1CC[C@H](OC(F)F)CC1 [Compound 221]
4. O=C(Nc1ccc(CNC(=O)c2ccc(F)cn2)cc1)OCc1ccc(Cl)cc1 [Compound 305]
5. Cc1cnc(C(=O)NCc2ccc(NC(=O)OCc3ccc(Cl)cc3)cc2)o1 [Compound 294]
6. CN(Cc1ccc(NC(=O)OCc2ccc(Cl)cc2)cc1)C(=O)c1ccnn1C1CCC1 [Compound 74]
7. Cc1cnn(C)c1C(=O)NCc1ccc(NC(=O)OCc2ccc(Cl)cc2)cc1 [Compound 45]

Result:
0.13
8.66
2.04
4.95
4.19
0.64
0.46

* * *

For each entry below, report its EC50 value.
- tested_target: UniProt P43490
- assay_text: NMN fluorescence biochemical assay (human recombinant NAMPT enzyme assay)
Numbers only, in µM.

Working through the 8 compounds below one at a time, give EC50 for each.
1. Cc1ncc(C(=O)N[C@@H](C)c2ccc(NC(=O)OCc3ccc(Cl)cc3)cc2)o1 [Compound 218]
2. O=C(Nc1ccc(CNC(=O)c2ccccn2)cc1)OCc1ccc(Cl)cc1 [Compound 272]
3. CCc1cc(C(=O)N(C)Cc2ccc(NC(=O)OCc3ccc(Cl)cc3)cc2)n(C)n1 [Compound 289]
4. O=C(Nc1ccc(CNC(=O)c2ccncc2)cc1)OCc1ccc(Cl)cc1 [Compound 126]
5. Cc1ccc(C(=O)NCc2ccc(NC(=O)OCc3ccc(Cl)cc3)cc2)nc1 [Compound 214]
6. C[C@H](NC(=O)c1cc(C(F)F)nn1C)c1ccc(NC(=O)OCc2ccc(Cl)cc2)cc1 [Compound 259]
7. CN(C)S(=O)(=O)N1CCC[C@@H](c2ccc(NC(=O)OCc3cnco3)cc2)C1 [Compound 384]
8. Cc1ccc(Cc2ccc(NC(=O)OCc3ccc(C(F)F)cc3)cc2)cn1 [Compound 328]

Result:
9.06
10.9
50.3
4.06
9.59
13.9
23.3
36.3

* * *

- tested_target: human NAMPT (Homo sapiens (Human))
- assay_text: NMN fluorescence biochemical assay (human recombinant NAMPT enzyme assay)
Threshold 20 µM. EC50 below it: satisfied. EC50 at it or above: not satisfied.

Here's what some known entries look like.
>  <compound>
NC(=O)c1ccc(COC(=O)Nc2ccc(CN3CCC[C@@H]3c3cccnc3)cc2)cc1

>  <label>
satisfied

$$$$
>  <compound>
O=C(Nc1ccc(CC(=O)N2CCC[C@H]2CO)cc1)OCc1ccc(Cl)cc1

>  <label>
not satisfied

$$$$

Ask: Regarding CS(=O)(=O)N1CCC[C@@H](c2ccc(NC(=O)OCc3cnco3)cc2)C1 , kindly confirm whether its EC50 is beneath 20 µM.
Result: not satisfied

Ask: I'd appreciate it if you could check whether Cn1ccc(C(=O)NCc2ccc(NC(=O)OCc3ccc(Cl)cc3)cc2)n1 has EC50 smaller than 20 µM.
Result: not satisfied

Ask: Please determine if CC(=O)N1CC2CCC(C1)C2c1ccc(NC(=O)OCc2cnco2)cc1 (centres unmarked) is below 20 µM in terms of EC50.
Result: not satisfied

Ask: Find out if reported EC50 for Cc1noc(C(=O)NCc2ccc(NC(=O)OCc3ccc(Cl)cc3)cc2)c1C is less than 20 µM
Result: satisfied

Ask: Dear colleague, could you confirm whether EC50 of CC(C)C(=O)N1CCC(Cc2ccc(NC(=O)OCc3cnco3)cc2)CC1 falls below 20 µM? Thanks.
Result: not satisfied

Ask: State whether 20 µM exceeds EC50 recorded for C[C@H](NC(=O)c1ccnn1C)c1ccc(NC(=O)OCc2ccc(Cl)cc2)cc1 .
Result: satisfied

Ask: EC50 strictly < 20 µM for this compound? CS(=O)(=O)N1CCC2(CC(Cc3ccc(NC(=O)OCc4cnco4)cc3F)C2)C1 (centres unmarked)
Result: satisfied

Ask: # TODO verify EC50 < 20 µM strictly for this compound: O=C(Nc1ccc(CC(=O)N2CC[C@H](O)C2)cc1)OCc1ccc(Cl)cc1
Result: not satisfied
